- TARGET_OR_TEST_SYSTEM: T1, human IL-12Rβ1-his (Acro Biosystems), biotinylated (human, UniProt P42701 24-545, biotinylated)
- T1 construct: bought; captured on Neutravidin in the ELISA; also called Bio-huIL-12Rβ1-His
- EXPERIMENT_DESCRIPTION: ELISA, periplasmic extract
REPORTED_ENDPOINT: OD450 nm

VHH258B1 (VHH) VHH: QVQLVESGGGLVQAGGSLRLSCAASGRTFSSYVMGWFRQAPGQEREFVAAIMRNGIMTYYADSVKGRFTISRDNAKNTVYLQMNTLKPDDTAVYYCAAASRVGVSISQSSSYTSWGQGTQVTVSS: 3.3
VHH238B1 (VHH) VHH: QLQLVESGGGLVQPGGSLRLSCAASGFTFSSYGMSWVRQAPGKGLEWVSYISAGGGTTTYVDFVKGRFTISRDNAKNMLYLQMNSLKPEDTAVYYCVHAADGSRGQGTQVTVSS: 3.33
VHH245B1 (VHH) VHH: QVQLQESGGGLVQAGGSLRLSCAASGSIASINAMGWYRQAPGKQRDFVARIQLSGQTSYAHSVRGRFTISRDNAKNTVYLQMNNLKPEDTAVYVCAASNTGSLYGLRNYWGQGTQVTVSS: 3.12
VHH187B1 (VHH) VHH: EVQLVESGGGLVQPGGSLRLSCAASGFTLDYYAIGWFRQAPGKEREGVSCISSSDRSTWYADSVKGRFTISRDNAKNTVYLQMHSLKPEDTAVYYCATPCYSDYDPEGYEYDYWGQGTQVTVSS: 0.125
VHH115B1 (VHH) VHH: QVQLVESGGGLVQAGGSLRLSCLASGRTSNYFMGWFRQAPGKEREFVAAISRSGGGTWYADSVKGRFAISRDNAKNTVNLQMNSLKREDTAVYYCAADRRTGTSVYTVDEYDYWGQGTQVTVSS: 1.9
VHH54B1 (VHH) VHH: QVQLVESGGGLVQAGGSLRLSCAASGGPFSGYVMGWFRQVSGKEREFVAGITGISSTYFADSVKGRFTISRDNAKNMVYLQMNSLKPEDTAVYYCAAVNSFGVIPTSPNGMDYWGKGTLVTVSS: 0.822

(P) VHH104B1 (VHH) VHH: EVQLVESGGGLVQPGGSLRLFCAASRSIFNINIMGWYRQAPGKQREWLASITSGGSTFYADSVKDRFTISRDSVKNTVYLQMNSLKPEDTAAYYCNRYRSVPLNTVYPWGQGTLVTVSS
(Q) VHH86B1 (VHH) VHH: QVQLVESGGGLMQAGGSLRLSCALSRGIFSAYAMGWFRQVQGKEREFVSGISRSGSTTDYVDTAKGRFTISRDNARDTVYLQMNSLKPEDTAVYYCAAVTGTFPSSTYHNANAYHHWGQGTQVTVSS
Short answer wanted: higher OD450 nm, P or Q ? State the label of the item chosen.
P
